TESTED_SYSTEM: intracellular phosphorylation of EGFR in NCI-H1975 cell line that harbors the EGFR L858R T790M mutations (Homo sapiens, UniProt P00533, L858R/T790M)
Construct: NCI-H1975 cell line that harbors the EGFR L858R T790M mutations (ATCC, CRL-5908); host or cells: NCI-H1975
Sequence (P00533 25-1210 T790M/L858R): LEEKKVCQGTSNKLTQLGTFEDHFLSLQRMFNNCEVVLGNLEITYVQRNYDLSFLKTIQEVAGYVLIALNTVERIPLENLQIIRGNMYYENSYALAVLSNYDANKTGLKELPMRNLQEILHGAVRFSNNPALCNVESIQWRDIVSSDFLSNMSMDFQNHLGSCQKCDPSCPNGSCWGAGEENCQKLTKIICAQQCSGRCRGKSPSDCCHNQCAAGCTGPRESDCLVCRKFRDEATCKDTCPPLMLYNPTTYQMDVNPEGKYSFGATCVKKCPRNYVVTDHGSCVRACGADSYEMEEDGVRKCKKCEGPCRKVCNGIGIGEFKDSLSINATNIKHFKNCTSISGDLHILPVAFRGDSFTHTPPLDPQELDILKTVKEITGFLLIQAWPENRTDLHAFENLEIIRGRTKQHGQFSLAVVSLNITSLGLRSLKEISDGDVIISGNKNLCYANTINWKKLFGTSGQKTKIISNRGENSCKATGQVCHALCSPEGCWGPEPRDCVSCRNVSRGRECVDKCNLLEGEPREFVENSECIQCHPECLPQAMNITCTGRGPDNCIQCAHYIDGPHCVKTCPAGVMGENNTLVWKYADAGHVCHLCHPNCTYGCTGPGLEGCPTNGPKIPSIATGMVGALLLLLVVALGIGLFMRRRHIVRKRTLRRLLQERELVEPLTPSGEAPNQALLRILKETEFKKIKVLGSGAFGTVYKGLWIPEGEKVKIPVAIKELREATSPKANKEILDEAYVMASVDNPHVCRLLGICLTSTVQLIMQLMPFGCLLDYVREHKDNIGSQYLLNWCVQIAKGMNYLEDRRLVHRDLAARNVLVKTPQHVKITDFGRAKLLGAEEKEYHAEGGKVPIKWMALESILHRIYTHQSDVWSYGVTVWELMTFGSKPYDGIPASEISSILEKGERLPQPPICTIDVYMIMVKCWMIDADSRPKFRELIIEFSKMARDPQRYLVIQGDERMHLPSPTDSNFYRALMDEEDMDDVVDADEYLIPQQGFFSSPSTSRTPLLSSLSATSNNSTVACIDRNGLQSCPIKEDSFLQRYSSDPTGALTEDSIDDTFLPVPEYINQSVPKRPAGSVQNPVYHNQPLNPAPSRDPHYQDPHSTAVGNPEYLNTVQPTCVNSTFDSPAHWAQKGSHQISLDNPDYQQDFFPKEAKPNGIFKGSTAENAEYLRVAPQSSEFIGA
ASSAY_PROCEDURE: NCI-H1975 pEGFR AlphaLISA assay
Assay type: cell-based
EXPERIMENTAL_PARAMETERS: NCI-H1975 cells (EGFR L858R T790M), p-EGFR (Tyr1068), 4-5 hours incubation; read-out: Ext pEGFR H1975 GMean IC50 (nM) Protocol: @Pharmaron AlphaLISA (Num)
OUTCOME_MEASURE: IC50

Below, 2 compounds whose answers are already recorded.
CC(C)c1cnc(N2CC(O)C2)c2cnc(Nc3ccnc(N4CC[C@@H](O)[C@@](C)(F)C4)n3)cc12 [Example 62] ... 30 to 50 nM
CO[C@@H]1CCN(c2nccc(Nc3cc4c(C(C)C)cnc(N5C[C@H](O)[C@H]5C)c4cn3)n2)C[C@@H]1F [Example 150] ... < 10 nM

// below: IC50 requested for another compound
**Query** Returns the measured IC50 for the input compound. Input: [2H]C([2H])([2H])O[C@H]1CCN(c2nccc(Nc3cc4c(C(C)C)cnc(N5C[C@H](OCCO)[C@H]5C)c4cn3)n2)C[C@H]1F [Example 137]
**Result** < 10 nM

* * *

Assignment: determine reported IC50 for the given molecules.
TESTED_SYSTEM: EGFR (L858R T790M C797S) (Homo sapiens, UniProt P00533, C797S/L858R/T790M)
Construct: purchased SignalChem E10-122VG
Sequence (P00533 25-1210 T790M/C797S/L858R): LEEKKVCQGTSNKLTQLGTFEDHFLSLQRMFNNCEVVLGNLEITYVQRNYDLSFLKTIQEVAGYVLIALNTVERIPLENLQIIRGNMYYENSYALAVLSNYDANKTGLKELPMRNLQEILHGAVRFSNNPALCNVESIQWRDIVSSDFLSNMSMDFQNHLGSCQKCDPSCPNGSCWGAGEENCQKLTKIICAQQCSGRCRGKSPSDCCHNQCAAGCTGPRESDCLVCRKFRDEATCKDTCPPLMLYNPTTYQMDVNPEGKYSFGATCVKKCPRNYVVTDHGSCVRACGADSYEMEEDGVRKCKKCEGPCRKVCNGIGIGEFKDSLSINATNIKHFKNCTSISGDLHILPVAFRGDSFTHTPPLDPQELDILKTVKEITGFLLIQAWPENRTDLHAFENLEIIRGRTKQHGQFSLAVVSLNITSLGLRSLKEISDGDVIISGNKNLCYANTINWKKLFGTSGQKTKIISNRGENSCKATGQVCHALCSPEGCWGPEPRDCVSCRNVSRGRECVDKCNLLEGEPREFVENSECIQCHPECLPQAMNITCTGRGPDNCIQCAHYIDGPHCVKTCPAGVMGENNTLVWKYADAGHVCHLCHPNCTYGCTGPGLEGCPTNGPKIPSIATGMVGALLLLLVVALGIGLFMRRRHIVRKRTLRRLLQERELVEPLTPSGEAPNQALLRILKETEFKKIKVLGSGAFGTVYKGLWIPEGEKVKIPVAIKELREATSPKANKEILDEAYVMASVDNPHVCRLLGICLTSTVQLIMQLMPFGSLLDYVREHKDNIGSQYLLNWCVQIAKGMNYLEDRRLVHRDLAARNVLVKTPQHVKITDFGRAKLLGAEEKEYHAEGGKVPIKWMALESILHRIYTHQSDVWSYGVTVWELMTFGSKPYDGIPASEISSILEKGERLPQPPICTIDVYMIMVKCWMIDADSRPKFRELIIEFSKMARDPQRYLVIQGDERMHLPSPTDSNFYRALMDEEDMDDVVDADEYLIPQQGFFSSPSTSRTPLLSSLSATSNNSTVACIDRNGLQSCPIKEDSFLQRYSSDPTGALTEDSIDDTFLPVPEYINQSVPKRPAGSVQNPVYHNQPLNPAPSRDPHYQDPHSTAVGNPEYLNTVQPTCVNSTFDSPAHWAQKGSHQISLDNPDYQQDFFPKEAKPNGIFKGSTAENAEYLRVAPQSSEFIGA
ASSAY_PROCEDURE: Biochemical EGFR inhibition assay (Caliper mobility shift), EGFR LRTMCS
EXPERIMENTAL_PARAMETERS: LRTMCS (PH) IC50 (nM) @ 1 mM ATP (Num), EGFR LRTMCS mutant

Below, 3 molecules whose answers are already recorded.
COP(=O)(CC1CN(c2ncc(C(C)C)c3cc(Nc4ccnc(N5CC[C@@H](O)[C@@](C)(F)C5)n4)ncc23)C1)OC [Example 96] ... 20 to 30 nM
C[C@H](CO)c1cnc(N2CC[C@H]2C)c2cnc(Nc3ccnc(N4C[C@@H](F)[C@@H](O)C(C)(C)C4)n3)cc12 (single isomer, unassigned) [Example 188] ... < 15 nM
[2H]C([2H])([2H])O[C@@H]1CCN(c2nccc(Nc3cc4c(C(C)C)cnc(N5C[C@H](O)[C@H]5C)c4cn3)n2)C[C@@H]1F [Example 139] ... < 15 nM

Please give IC50, item by item, for the list that follows.
1. CC(C)c1cnc(N2CC(C(F)F)C2)c2cnc(Nc3ccnc(N4CC[C@@H](O)[C@@](C)(F)C4)n3)cc12 [Example 55]
2. CC(C)c1cnc(N2CCC2)c2cnc(Nc3ccnc(N4CC[C@@H](O)[C@@H](F)C4)n3)cc12 [Example 152]
3. Cc1c(-c2ncc(C(C)C)c3cc(Nc4ccnc(N5CC[C@@H](O)[C@@](C)(F)C5)n4)ncc23)nnn1C [Example 17]
4. CO[C@@H]1CCN(c2nccc(Nc3cc4c(C(C)C)cnc(N5CC6(CCS6(=O)=O)C5)c4cn3)n2)C[C@@H]1O (single isomer, unassigned) [Example 124]
5. COC(=O)N1CC2(CCN2c2ncc(C(C)C)c3cc(Nc4ccnc(N5CC[C@@H](O)[C@@](C)(F)C5)n4)ncc23)C1 [Example 82]
6. C[C@@H]1CCN1c1ncc(-c2cccnc2F)c2cc(Nc3ccnc(N4CC[C@@H](O)[C@@H](F)C4)n3)ncc12 (single isomer, unassigned) [Example 161]

**Result**
["< 15 nM", "15 to 20 nM", "< 15 nM", "< 15 nM", "15 to 20 nM", "< 15 nM"]

Please give IC50, item by item, for the list that follows.
1. CO[C@H]1CCN(c2nccc(Nc3cc4c(C(C)C)cnc(N5CC(O)C5)c4cn3)n2)C[C@H]1F [Example 44]
2. CC(C)c1cnc(N2CC(O)C2)c2cnc(Nc3ccnc(N4CC[C@@H](O)[C@@](C)(F)C4)n3)cc12 [Example 62]
3. CC(C)c1cnc(N2CCC23COC3)c2cnc(Nc3ccnc(N4CC[C@@H](O)[C@@](C)(F)C4)n3)cc12 [Example 53]
4. CC(C)c1cnc(N2C[C@H](n3ccnn3)[C@H]2C)c2cnc(Nc3ccnc(N4CCC(C)(O)CC4)n3)cc12 [Example 130]

**Result**
1: < 15 nM; 2: < 15 nM; 3: < 15 nM; 4: 15 to 20 nM

Please give IC50, item by item, for the list that follows.
1. CC(=O)N1CC(c2ccc(C(C)C)c3cc(Nc4ccnc(N5CC[C@@H](O)[C@@](C)(F)C5)n4)ncc23)C1 [Example 4]
2. CC(C)c1cnc(-c2cnn(C)c2)c2cnc(Nc3ccnc(N4CC[C@@H](O)[C@@](C)(F)C4)n3)cc12 [Example 9]
3. CO[C@@H]1CCN(c2nccc(Nc3cc4c(C(C)C)ccc(N5C[C@H](O)[C@H]5C)c4cn3)n2)C[C@@H]1O (single isomer, unassigned) [Example 123]
4. CC(C)c1cnc(N2CC3(CCS3(=O)=O)C2)c2cnc(Nc3ccnc(N4CC[C@@](C)(O)[C@@H](F)C4)n3)cc12 (single isomer, unassigned) [Example 175]
5. CO[C@H]1CCN(c2nccc(Nc3cc4c(C(C)C)cnc(N5CCC56CN(C)C6)c4cn3)n2)C[C@@]1(C)F (single isomer, unassigned) [Example 43]
6. CC(C)c1cnc(N2CC(C#N)(CO)C2)c2cnc(Nc3ccnc(N4CC[C@@H](O)[C@@](C)(F)C4)n3)cc12 [Example 73]

**Result**
["< 15 nM", "< 15 nM", "15 to 20 nM", "< 15 nM", "15 to 20 nM", "30 to 100 nM"]

Please give IC50, item by item, for the list that follows.
1. CC(C)Oc1cnc(N2CC[C@H]2C)c2cnc(Nc3ccnc(N4CC[C@@H](O)[C@@H](F)C4)n3)cc12 [Example 153]
2. CC(C)c1cnc(N2C[C@H](O)[C@H]2C)c2cnc(Nc3ccnc(N4CC[C@](C)(O)C(F)(F)C4)n3)cc12 (single isomer, unassigned) [Example 171]
3. CC(C)c1cnc(N2CCC23CN(C)C3)c2cnc(Nc3ccnc(N4CCC5(CCO5)CC4)n3)cc12 [Example 116]

**Result**
["30 to 100 nM", "< 15 nM", "20 to 30 nM"]

Please give IC50, item by item, for the list that follows.
1. C[C@@H]1[C@H](F)CN1c1ncc([C@@H](C)CO)c2cc(Nc3ccnc(N4CC[C@@H](O)[C@@](C)(F)C4)n3)ncc12 (single isomer, unassigned) [Example 210]
2. CC(C)c1cnc(N2CC3(C2)CC3(F)F)c2cnc(Nc3ccnc(N4CC[C@@H](O)[C@@](C)(F)C4)n3)cc12 [Example 59]
3. CC(C)c1cnc(N2CC(C[S+]([O-])C(F)(F)F)C2)c2cnc(Nc3ccnc(N4CC[C@@H](O)[C@@](C)(F)C4)n3)cc12 (stereo partly shown) [Example 100]

**Result**
1. < 15 nM
2. < 15 nM
3. < 15 nM

* * *

TESTED_SYSTEM: intracellular phosphorylation of EGFR in NCI-H1975 cell line that harbors the EGFR L858R T790M mutations (Homo sapiens, UniProt P00533, L858R/T790M)
Construct: NCI-H1975 cell line that harbors the EGFR L858R T790M mutations (ATCC, CRL-5908); host or cells: NCI-H1975
ASSAY_PROCEDURE: NCI-H1975 pEGFR AlphaLISA assay
Type: cell-based
EXPERIMENTAL_PARAMETERS: NCI-H1975 cells (EGFR L858R T790M), p-EGFR (Tyr1068), 4-5 hours incubation; read-out: Ext pEGFR H1975 GMean IC50 (nM) Protocol: @Pharmaron AlphaLISA (Num)
OUTCOME_MEASURE: IC50

Below, 5 compounds whose answers are already recorded.
CC(=O)N1CC(Cc2ccc(C(C)C)c3cc(Nc4ccnc(N5CC[C@@H](O)[C@@](C)(F)C5)n4)ncc23)C1 [Example 2] ... > 50 nM
CC(C)c1cnc(N2CC[C@@H]2C)c2cnc(Nc3ccnc(N4CC[C@@H](O)[C@@H](F)C4)n3)cc12 (single isomer, unassigned) [Example 159] ... 10 to 20 nM
CC(C)c1cnc(N2CC[C@]3(C2)CC3(F)F)c2cnc(Nc3ccnc(N4CC[C@@H](O)[C@@](C)(F)C4)n3)cc12 (single isomer, unassigned) [Example 214] ... 30 to 50 nM
CC(C)c1cnc(N2C[C@H](O)[C@H]2C)c2cnc(Nc3ccnc(N4C[C@@H](F)[C@@H](O)C(C)(C)C4)n3)cc12 (single isomer, unassigned) [Example 145] ... 20 to 30 nM
CC(C)c1ccc(N2CC(n3ccnn3)C2)c2cnc(Nc3ccnc(N4CC[C@@H](O)[C@@](C)(F)C4)n3)cc12 [Example 38] ... < 10 nM

**Query** Returns the measured IC50 for the input compound. Input: CC(C)c1cnc(N2CCCC2)c2cnc(Nc3ccnc(N4CC[C@@H](O)[C@@H](F)C4)n3)cc12 [Example 151]
**Result** 30 to 50 nM
